assayed-target: Man(a1-3)[Man(a1-6)]Man(b1-4)GlcNAc(b1-4)GlcNAc
test-protocol: glycan array binding signal (z-score within array); higher = stronger binding
condition-notes: glycan notation: IUPAC condensed, linker removed
This is one part of a sample in which the strongest signals are shown more often than they occur.
Classification field: enter class 1 for glycan array binding signal (z-score) values not below 0.02, class 0 for values below it.

Would you please look over these solved cases?
binder	assigned-category
LlpA (Burkholderia cenocepacia) (protein) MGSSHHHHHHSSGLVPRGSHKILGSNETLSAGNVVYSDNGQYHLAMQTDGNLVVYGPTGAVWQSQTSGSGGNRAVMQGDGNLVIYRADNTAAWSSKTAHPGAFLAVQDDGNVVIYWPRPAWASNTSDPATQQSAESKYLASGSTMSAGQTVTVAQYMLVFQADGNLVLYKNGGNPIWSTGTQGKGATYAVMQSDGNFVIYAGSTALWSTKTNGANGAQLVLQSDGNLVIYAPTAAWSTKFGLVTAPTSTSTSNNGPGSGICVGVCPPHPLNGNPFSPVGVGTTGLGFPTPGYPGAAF	class 0
Ecp6 (Cladosporium fulvum), B3VBK9 (protein) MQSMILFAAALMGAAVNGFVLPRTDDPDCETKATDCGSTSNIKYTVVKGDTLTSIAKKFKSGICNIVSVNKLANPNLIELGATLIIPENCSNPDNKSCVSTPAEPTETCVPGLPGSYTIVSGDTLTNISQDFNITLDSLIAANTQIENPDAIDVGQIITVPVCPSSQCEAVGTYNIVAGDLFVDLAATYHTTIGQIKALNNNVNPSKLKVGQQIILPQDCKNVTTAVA	class 0
Epf (Streptococcus pyogenes) (protein) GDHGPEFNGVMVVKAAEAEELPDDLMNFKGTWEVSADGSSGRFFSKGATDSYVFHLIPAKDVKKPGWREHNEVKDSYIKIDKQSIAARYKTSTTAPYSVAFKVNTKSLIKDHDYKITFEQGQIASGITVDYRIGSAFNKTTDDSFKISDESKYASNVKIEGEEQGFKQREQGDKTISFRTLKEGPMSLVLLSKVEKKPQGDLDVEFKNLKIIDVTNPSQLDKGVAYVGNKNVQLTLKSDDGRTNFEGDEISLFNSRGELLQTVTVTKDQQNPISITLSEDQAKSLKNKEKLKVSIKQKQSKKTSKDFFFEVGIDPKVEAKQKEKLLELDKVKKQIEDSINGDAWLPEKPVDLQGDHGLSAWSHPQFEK	class 1
CV-IIL (Chromobacterium violaceum) (protein) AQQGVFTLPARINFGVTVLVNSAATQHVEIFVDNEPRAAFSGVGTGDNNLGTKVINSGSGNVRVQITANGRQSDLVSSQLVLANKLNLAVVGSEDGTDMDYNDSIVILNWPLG	class 1

Asked: Say whether Pbx1CASH domain (Cryptococcus neoformans) (protein) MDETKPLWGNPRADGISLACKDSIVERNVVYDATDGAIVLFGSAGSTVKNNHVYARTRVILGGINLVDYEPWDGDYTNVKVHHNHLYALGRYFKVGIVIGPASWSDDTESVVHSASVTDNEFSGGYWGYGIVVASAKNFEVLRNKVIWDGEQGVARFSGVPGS shows glycan array binding signal (z-score) of 0.02 or more.
Given back: class 1

Taken from the supplement of paper PMC8728848.
